The reported numbers originate from patent US5102871A.

assay: In vitro hydrolysis in human plasma; type: in vitro ADME; conditions: 37° C., 30 minutes, read-out: Residual amount in plasma (%)
Bridge positions count the residues as written; N and C are the ends. Peptide text beside a SMILES is read from it. I, II: the chains in the order shown.
observedProperty: remaining at 0.5 h, 2.18 mM (%)
Record the value in %, omitting the unit from your answer.

Consider the reported remaining at 0.5 h, 2.18 mM for these compounds:
N[C@@H](CC(=O)O)C(=O)N[C@@H](CSSC[C@H](NC(=O)[C@@H](N)CC(=O)O)C(=O)O)C(=O)O [(Asp-Cys)2, N,N'-bis-α-aspartyl-L-cystine] (I: H-Asp-Cys-OH / II: H-Asp-Cys-OH; disulfide I:2-II:2) ... 30
N[C@@H](CCC(=O)N[C@@H](CSSC[C@H](N)C(=O)O)C(=O)O)C(=O)O [γ-Glu-Cys-Cys] ... 67
C[C@H](N)C(=O)N[C@@H](CSSC[C@H](NC(=O)[C@H](C)N)C(=O)O)C(=O)O [(Ala-Cys)2, bis-α-L-alanyl-L-cystine, reference compound] (I: H-Ala-Cys-OH / II: H-Ala-Cys-OH; disulfide I:2-II:2) ... 26
NCC(=O)N[C@@H](CSSC[C@H](NC(=O)CN)C(=O)O)C(=O)O [(Gly-Cys)2, bis-glycyl-L-cystine, reference compound] (I: H-Gly-Cys-OH / II: H-Gly-Cys-OH; disulfide I:2-II:2) ... 35

Switching to the query record.
Enquiry: # return recorded remaining at 0.5 h, 2.18 mM for input N[C@@H](CCC(=O)N[C@@H](CSSC[C@H](NC(=O)CC[C@H](N)C(=O)O)C(=O)O)C(=O)O)C(=O)O [(γ-Glu-Cys)2, L-glutamyl-L-cysteine disulfide]
Return: 85
